What CC50 at 48 h was measured for each of the following?
TEST DETAILS: Sulforhodamine cytotoxicity assay, HeLa
Type: cell-based
MEASUREMENT CONDITIONS: human, HeLa cells
All answers are understood in mg/L, so give the number only.

Query: Find the recorded CC50 at 48 h belonging to O=c1cc(-c2ccc(O)c(O)c2)oc2cc(O)cc(O)c12 [LUT, luteolin] and report it.
Response: 8.36

Query: Then O=C1C[C@@H](c2ccc(O)cc2)Oc2cc(O)cc(O)c21 [NRG, naringenin] ?
Response: 65.2

Query: Then O=c1c(O)c(-c2cc(O)c(O)c(O)c2)oc2cc(O)cc(O)c12 [MCT, myricetin] ?
Response: 36.8

Query: Then CC[C@@]1(O)C(=O)OCc2c1cc1n(c2=O)Cc2cc3ccccc3nc2-1 [camptothecin, reference compound] ?
Response: 0.89
